Biological target: hEP1 (Homo sapiens, UniProt P34995)
Construct: expressed in transfected cells
Sequence (P34995 1-402): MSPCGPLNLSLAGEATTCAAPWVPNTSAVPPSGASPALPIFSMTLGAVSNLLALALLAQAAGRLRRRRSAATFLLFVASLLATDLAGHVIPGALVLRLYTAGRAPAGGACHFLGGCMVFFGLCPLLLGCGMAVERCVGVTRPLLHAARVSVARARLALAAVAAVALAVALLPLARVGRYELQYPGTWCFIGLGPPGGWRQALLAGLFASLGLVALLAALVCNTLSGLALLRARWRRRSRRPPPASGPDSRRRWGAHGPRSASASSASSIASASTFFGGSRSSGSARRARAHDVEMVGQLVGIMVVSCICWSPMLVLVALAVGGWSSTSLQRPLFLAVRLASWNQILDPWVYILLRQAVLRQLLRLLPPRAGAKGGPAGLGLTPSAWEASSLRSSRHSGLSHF
Assay: Functional data, human EP1 receptor
Assay type: cell-based
Conditions: NA = not active
outcome measure: EC50 (nM)

INSERT INTO assay_data (compound, measure_unit, relation_operator, quantitative_result) VALUES
  ('O=C(O)COCCCCN1C(=O)CC[C@@H]1CC[C@H](O)Cc1cccc(Cl)c1 (stereo in doubt) [Example 6]', 'nM', '=', 3810),
  ('COC(=O)COCCCCN1C(=O)CC[C@@H]1CC[C@H](O)Cc1cccc(Cl)c1 (stereo in doubt) [Example 5]', 'nM', '>', 10000),
  ('COC(=O)COCCCCN1C(=O)CC[C@@H]1/C=C/C(=O)Cc1cccc(Cl)c1 [Example 1]', 'nM', '=', 721);
